Reported variant/HC_K99L values follow for various binders
# target entity: T1, mouse tissue factor pathway inhibitor (TFPI) (mouse, UniProt O54819 29-289, limits assumed)
# T1 construct: bought; also called mTFPI; murine TFPI
# T1 sequence (looked up): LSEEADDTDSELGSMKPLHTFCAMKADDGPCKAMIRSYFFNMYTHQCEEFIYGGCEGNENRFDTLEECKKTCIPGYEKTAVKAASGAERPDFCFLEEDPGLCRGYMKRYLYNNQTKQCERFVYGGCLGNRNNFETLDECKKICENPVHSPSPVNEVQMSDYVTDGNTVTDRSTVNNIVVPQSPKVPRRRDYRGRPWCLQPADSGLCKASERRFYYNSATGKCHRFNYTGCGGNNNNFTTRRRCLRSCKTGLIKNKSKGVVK
# protocol: competitive ELISA
Numeric only. Scale: ratio

Consider the worked cases shown below.
2A8 HC S35D+I51D+K99L/LC Y48F+D91W (Fab, V domains shown) VH: QVQLVESGGGLVQPGGSLRLSCAASGFTFRSYGMDWVRQAPGKGLEWVSSDRGSSSSTYYADSVKGRFTISRDNSKNTLYLQMNSLRAEDTAVYYCARLYRYWFDYWGQGTLVTVSS VL: DIELTQPPSVSVAPGQTARISCSGDNLRNYYAHWYQQKPGQAPVVVIFYDNNRPSGIPERFSGSNSGNTATLTISGTQAEDEADYYCQSWWDGVPVFGGGTKLTVLG; 0.2
2A8 HC S31V+S35D+S54F/LC Y48F+D91L+V96W (Fab, V domains shown) VH: QVQLVESGGGLVQPGGSLRLSCAASGFTFRVYGMDWVRQAPGKGLEWVSSIRGFSSSTYYADSVKGRFTISRDNSKNTLYLQMNSLRAEDTAVYYCARKYRYWFDYWGQGTLVTVSS VL: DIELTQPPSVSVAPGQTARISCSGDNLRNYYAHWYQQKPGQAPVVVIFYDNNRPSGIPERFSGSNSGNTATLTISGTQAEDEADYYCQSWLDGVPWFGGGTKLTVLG; 4.2

As a next step, examine the binder that follows.
Query: // lookup variant/HC_K99L for 2A8 HC S31V+I51D+S55R+K99V/LC D1S+I2Y+A13S+S21T+R28P+N29K+Y48F+Y49R+N51S+E80M+D91L+D92S+V94T+V96W (Fab, V domains shown) VH: QVQLVESGGGLVQPGGSLRLSCAASGFTFRVYGMSWVRQAPGKGLEWVSSDRGSRSSTYYADSVKGRFTISRDNSKNTLYLQMNSLRAEDTAVYYCARVYRYWFDYWGQGTLVTVSS VL: SYELTQPPSVSVSPGQTARITCSGDNLPKYYAHWYQQKPGQAPVVVIFRDSNRPSGIPERFSGSNSGNTATLTISGTQAMDEADYYCQSWLSGTPWFGGGTKLTVLG
Response: 2.4
